Values were extracted from patent US20100249071A1.

# targetDesc: hS1PR5 (hEdg8) membrane protein (Homo sapiens, UniProt Q9H228)
# Sequence (Q9H228 whole entry): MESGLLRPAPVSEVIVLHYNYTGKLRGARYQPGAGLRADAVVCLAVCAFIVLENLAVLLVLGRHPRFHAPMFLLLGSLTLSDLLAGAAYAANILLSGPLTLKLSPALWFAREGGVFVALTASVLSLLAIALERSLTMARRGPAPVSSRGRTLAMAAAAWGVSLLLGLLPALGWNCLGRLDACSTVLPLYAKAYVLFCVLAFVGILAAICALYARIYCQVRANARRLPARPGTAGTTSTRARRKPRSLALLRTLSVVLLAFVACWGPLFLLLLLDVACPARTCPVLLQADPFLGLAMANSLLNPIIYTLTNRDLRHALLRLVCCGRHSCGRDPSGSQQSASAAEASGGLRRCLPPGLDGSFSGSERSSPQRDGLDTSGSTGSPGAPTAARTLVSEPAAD
# experimentalProtocol: hS1P5R GTPγS binding assay (Assay 4)
pEC50: −log10 of the molar value.
Entries annotated with measured pEC50

Examples from the recorded data:
The reported value for "CC(C)Nc1ccc(-c2nnc(-c3cc(F)c(OC[C@H](N)[C@@H](C)OP(=O)(O)O)cc3Cl)s2)cn1" in terms of pEC50 is 7.30 to 8.00

The reported value for "Cc1cc(-c2nnc(-c3cc(F)c(OC[C@H](N)[C@H](C)OP(=O)(O)O)cc3Cl)s2)cc(NC(C)C)n1" in terms of pEC50 is 6.60 to 7.30

The reported value for "CC(C)Oc1ccc(-c2nnc(-c3cc(F)c(OC[C@H](N)COP(=O)(O)O)cc3Cl)s2)cc1Cl" in terms of pEC50 is ≥ 8.00

Next:
The reported value for "CCCOc1ccc(-c2nnc(-c3cc(F)c(OC[C@H](N)CO)cc3Cl)s2)cc1Cl" in terms of pEC50 is 6.60 to 7.30
